We begin with a simple list: items and their reported IC50.
target: PRMT5-MEP50 enzyme (Homo sapiens, UniProt O14744); construct: One virus expresses full length human PRMT5 with Flag-tag at N-terminus; Flag (N); purchased Charles River (Argenta); host or cells: insect cells (Sf9), baculovirus co-infection; assay: In vitro assay 1b: high throughput mass spectrometer assay of SAH formation, 1.25 nM enzyme, 120 min; assay type: biochemical; details: averaged values; PRMT5-MEP50, 1.25 nM enzyme, 120 min; read-out: pIC50 Assay 1b (converted)
Sequence (O14744 whole entry): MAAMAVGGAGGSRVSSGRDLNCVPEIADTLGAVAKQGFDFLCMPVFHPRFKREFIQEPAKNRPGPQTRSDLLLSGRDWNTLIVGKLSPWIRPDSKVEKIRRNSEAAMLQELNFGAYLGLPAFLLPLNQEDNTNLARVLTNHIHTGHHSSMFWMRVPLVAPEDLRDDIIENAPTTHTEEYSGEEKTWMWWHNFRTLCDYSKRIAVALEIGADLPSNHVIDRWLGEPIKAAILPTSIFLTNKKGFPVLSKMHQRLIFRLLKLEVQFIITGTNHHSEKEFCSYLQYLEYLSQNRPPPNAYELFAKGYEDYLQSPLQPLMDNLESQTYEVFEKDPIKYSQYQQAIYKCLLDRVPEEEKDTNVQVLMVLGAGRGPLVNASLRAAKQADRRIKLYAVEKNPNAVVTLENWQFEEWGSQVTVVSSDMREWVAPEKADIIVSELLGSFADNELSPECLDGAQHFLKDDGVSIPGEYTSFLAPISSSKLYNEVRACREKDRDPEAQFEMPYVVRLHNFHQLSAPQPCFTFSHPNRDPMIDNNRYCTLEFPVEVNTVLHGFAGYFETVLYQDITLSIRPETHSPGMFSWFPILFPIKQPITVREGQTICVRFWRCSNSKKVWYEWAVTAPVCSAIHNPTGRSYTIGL
Sequence (Q9BQA1 whole entry partner): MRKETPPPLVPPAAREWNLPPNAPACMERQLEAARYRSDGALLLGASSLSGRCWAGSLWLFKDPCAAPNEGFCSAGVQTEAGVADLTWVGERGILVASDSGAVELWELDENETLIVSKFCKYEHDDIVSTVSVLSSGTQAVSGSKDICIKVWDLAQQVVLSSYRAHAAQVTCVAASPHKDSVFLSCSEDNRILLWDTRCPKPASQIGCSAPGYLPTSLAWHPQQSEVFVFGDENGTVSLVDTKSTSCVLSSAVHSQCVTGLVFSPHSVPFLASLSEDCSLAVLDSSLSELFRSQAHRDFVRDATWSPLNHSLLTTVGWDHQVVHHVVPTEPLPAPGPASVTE

[
  {
    "SMILES_STRING": "Nc1nc2cc(CC[C@H]3C[C@@H](n4ccc5c(N)nc(Cl)nc54)[C@H](O)[C@@H]3O)ccc2cc1Cl",
    "TARGET_OF_ASSAY": "PRMT5-MEP50 enzyme (Homo sapiens, UniProt O14744)",
    "COMPARISON_SYMBOL": "<",
    "IC50 (nM)": 0.2
  },
  {
    "SMILES_STRING": "Nc1nc2cc(CC[C@H]3O[C@@H](n4ccc5c(N)ncnc54)[C@H](O)[C@@H]3O)ccc2cc1F",
    "TARGET_OF_ASSAY": "PRMT5-MEP50 enzyme (Homo sapiens, UniProt O14744)",
    "COMPARISON_SYMBOL": "=",
    "IC50 (nM)": 0.631
  },
  {
    "SMILES_STRING": "Nc1nc2cc(CC[C@H]3C[C@@H](n4ccc5cnc(Cl)nc54)[C@H](O)[C@@H]3O)ccc2cc1Cl",
    "TARGET_OF_ASSAY": "PRMT5-MEP50 enzyme (Homo sapiens, UniProt O14744)",
    "COMPARISON_SYMBOL": "=",
    "IC50 (nM)": 2.51
  },
  {
    "SMILES_STRING": "N#Cc1cnc2cc(OC[C@H]3O[C@@H](n4ccc5c(N)ncnc54)[C@H](O)[C@@H]3O)ccc2c1N",
    "TARGET_OF_ASSAY": "PRMT5-MEP50 enzyme (Homo sapiens, UniProt O14744)",
    "COMPARISON_SYMBOL": "=",
    "IC50 (nM)": 1260
  },
  {
    "SMILES_STRING": "Nc1ncnc2c1ccn2[C@@H]1O[C@H](COc2ccc3ccc(NCc4ccccc4)nc3c2)[C@@H](O)[C@H]1O",
    "TARGET_OF_ASSAY": "PRMT5-MEP50 enzyme (Homo sapiens, UniProt O14744)",
    "COMPARISON_SYMBOL": "=",
    "IC50 (nM)": 3.98
  },
  {
    "SMILES_STRING": "Nc1ncnc2c1ccn2[C@@H]1O[C@H](CCc2ccc3ccc(NCc4ccc(Cl)cc4)nc3c2)[C@@H](O)[C@H]1O",
    "TARGET_OF_ASSAY": "PRMT5-MEP50 enzyme (Homo sapiens, UniProt O14744)",
    "COMPARISON_SYMBOL": "=",
    "IC50 (nM)": 6.31
  },
  {
    "SMILES_STRING": "Nc1nc2cc(OC[C@H]3O[C@@H](n4ccc5c(N)ncnc54)[C@H](O)[C@@H]3O)ccc2cc1Br",
    "TARGET_OF_ASSAY": "PRMT5-MEP50 enzyme (Homo sapiens, UniProt O14744)",
    "COMPARISON_SYMBOL": "<",
    "IC50 (nM)": 0.2
  },
  {
    "SMILES_STRING": "Cc1cn([C@@H]2O[C@H](COc3ccc4cccnc4c3)[C@@H](O)[C@H]2O)c2ncnc(N)c12",
    "TARGET_OF_ASSAY": "PRMT5-MEP50 enzyme (Homo sapiens, UniProt O14744)",
    "COMPARISON_SYMBOL": "=",
    "IC50 (nM)": 501
  },
  {
    "SMILES_STRING": "Nc1ncnc2c1ccn2[C@@H]1C[C@H](CCc2ccc3ccc(NCC4CC4)nc3c2)[C@@H](O)[C@H]1O",
    "TARGET_OF_ASSAY": "PRMT5-MEP50 enzyme (Homo sapiens, UniProt O14744)",
    "COMPARISON_SYMBOL": "=",
    "IC50 (nM)": 0.126
  },
  {
    "SMILES_STRING": "Nc1ccc2ccc(OC[C@H]3O[C@@H](n4ccc5c(N)ncnc54)[C@H](O)[C@@H]3O)cc2n1",
    "TARGET_OF_ASSAY": "PRMT5-MEP50 enzyme (Homo sapiens, UniProt O14744)",
    "COMPARISON_SYMBOL": "=",
    "IC50 (nM)": 5.01
  },
  {
    "SMILES_STRING": "Cc1cnc2cc(CC[C@H]3C[C@@H](n4ccc5c(N)ncnc54)[C@H](O)[C@@H]3O)ccc2c1",
    "TARGET_OF_ASSAY": "PRMT5-MEP50 enzyme (Homo sapiens, UniProt O14744)",
    "COMPARISON_SYMBOL": "=",
    "IC50 (nM)": 10
  },
  {
    "SMILES_STRING": "CC(C)C(=O)O[C@@H]1[C@H](OC(=O)C(C)C)[C@@H](COc2ccc3cc(Br)cnc3c2)O[C@H]1n1ccc2c(N)ncnc21",
    "TARGET_OF_ASSAY": "PRMT5-MEP50 enzyme (Homo sapiens, UniProt O14744)",
    "COMPARISON_SYMBOL": ">",
    "IC50 (nM)": 100000
  },
  {
    "SMILES_STRING": "Cc1ncnc2c1ccn2[C@@H]1C[C@H](CCc2ccc3ccc(NCc4ccc(Cl)cc4)nc3c2)[C@@H](O)[C@H]1O",
    "TARGET_OF_ASSAY": "PRMT5-MEP50 enzyme (Homo sapiens, UniProt O14744)",
    "COMPARISON_SYMBOL": "=",
    "IC50 (nM)": 7.94
  },
  {
    "SMILES_STRING": "Nc1nc2cc(CC[C@H]3C[C@@H](n4ccc5ncccc54)[C@H](O)[C@@H]3O)ccc2cc1Cl",
    "TARGET_OF_ASSAY": "PRMT5-MEP50 enzyme (Homo sapiens, UniProt O14744)",
    "COMPARISON_SYMBOL": "=",
    "IC50 (nM)": 50.1
  },
  {
    "SMILES_STRING": "CNc1ncnc2c1ccn2[C@@H]1C[C@H](CCc2ccc3ccc(NC(C)C)nc3c2)[C@@H](O)[C@H]1O",
    "TARGET_OF_ASSAY": "PRMT5-MEP50 enzyme (Homo sapiens, UniProt O14744)",
    "COMPARISON_SYMBOL": "=",
    "IC50 (nM)": 1.58
  },
  {
    "SMILES_STRING": "Nc1ncnc2c1ccn2[C@@H]1C[C@H](CCc2ccc3cc(Br)cnc3c2)[C@@H](O)[C@H]1O",
    "TARGET_OF_ASSAY": "PRMT5-MEP50 enzyme (Homo sapiens, UniProt O14744)",
    "COMPARISON_SYMBOL": "=",
    "IC50 (nM)": 15.8
  },
  {
    "SMILES_STRING": "COc1ncnc2c1ccn2[C@@H]1C[C@H](COc2ccc3cc(Cl)c(N)nc3c2)[C@@H](O)[C@H]1O",
    "TARGET_OF_ASSAY": "PRMT5-MEP50 enzyme (Homo sapiens, UniProt O14744)",
    "COMPARISON_SYMBOL": "=",
    "IC50 (nM)": 5.01
  },
  {
    "SMILES_STRING": "Nc1ccc2ccc(CC[C@H]3O[C@@H](n4ccc5c(Cl)ncnc54)[C@H](O)[C@@H]3O)cc2n1",
    "TARGET_OF_ASSAY": "PRMT5-MEP50 enzyme (Homo sapiens, UniProt O14744)",
    "COMPARISON_SYMBOL": "=",
    "IC50 (nM)": 6.31
  },
  {
    "SMILES_STRING": "O[C@@H]1[C@@H](CCc2ccc3ccc(NCc4ccc(Cl)cc4)nc3c2)C[C@@H](n2ccc3cncnc32)[C@@H]1O",
    "TARGET_OF_ASSAY": "PRMT5-MEP50 enzyme (Homo sapiens, UniProt O14744)",
    "COMPARISON_SYMBOL": "=",
    "IC50 (nM)": 6.31
  },
  {
    "SMILES_STRING": "Nc1ncnc2c1ccn2[C@@H]1C[C@H](CCc2ccc3cc(F)c(NCC4CC4)nc3c2)[C@@H](O)[C@H]1O",
    "TARGET_OF_ASSAY": "PRMT5-MEP50 enzyme (Homo sapiens, UniProt O14744)",
    "COMPARISON_SYMBOL": "=",
    "IC50 (nM)": 158
  },
  {
    "SMILES_STRING": "Nc1ncnn2c([C@@H]3O[C@H](/C=C/c4ccc5cccnc5c4)[C@@H](O)[C@H]3O)ccc12",
    "TARGET_OF_ASSAY": "PRMT5-MEP50 enzyme (Homo sapiens, UniProt O14744)",
    "COMPARISON_SYMBOL": "=",
    "IC50 (nM)": 1000
  },
  {
    "SMILES_STRING": "Nc1ncnc2c1ccn2[C@@H]1O[C@H](COc2ccc3ccc(C(F)(F)F)nc3c2)[C@@H](O)[C@H]1O",
    "TARGET_OF_ASSAY": "PRMT5-MEP50 enzyme (Homo sapiens, UniProt O14744)",
    "COMPARISON_SYMBOL": "=",
    "IC50 (nM)": 25100
  },
  {
    "SMILES_STRING": "CNc1ncnc2c1ccn2[C@@H]1C[C@H](CCc2ccc3cc(C(F)(F)F)c(N)nc3c2)[C@@H](O)[C@H]1O",
    "TARGET_OF_ASSAY": "PRMT5-MEP50 enzyme (Homo sapiens, UniProt O14744)",
    "COMPARISON_SYMBOL": "=",
    "IC50 (nM)": 1.58
  },
  {
    "SMILES_STRING": "Nc1nc2cc(CC[C@H]3C[C@@H](n4ccc5cncnc54)[C@H](O)[C@@H]3O)ccc2cc1Cl",
    "TARGET_OF_ASSAY": "PRMT5-MEP50 enzyme (Homo sapiens, UniProt O14744)",
    "COMPARISON_SYMBOL": "=",
    "IC50 (nM)": 1
  },
  {
    "SMILES_STRING": "Nc1ccc2ccc(OC[C@H]3O[C@@H](n4ccc5c(Cl)ncnc54)[C@H](O)[C@@H]3O)cc2n1",
    "TARGET_OF_ASSAY": "PRMT5-MEP50 enzyme (Homo sapiens, UniProt O14744)",
    "COMPARISON_SYMBOL": "=",
    "IC50 (nM)": 7.94
  },
  {
    "SMILES_STRING": "Nc1ncnc2c1ccn2[C@@H]1O[C@H](COc2ccc3cccnc3c2Cl)[C@@H](O)[C@H]1O",
    "TARGET_OF_ASSAY": "PRMT5-MEP50 enzyme (Homo sapiens, UniProt O14744)",
    "COMPARISON_SYMBOL": "=",
    "IC50 (nM)": 10000
  },
  {
    "SMILES_STRING": "Nc1ncnc2c1ccn2[C@@H]1O[C@H](COc2ccc3ncccc3c2)[C@@H](O)[C@H]1O",
    "TARGET_OF_ASSAY": "PRMT5-MEP50 enzyme (Homo sapiens, UniProt O14744)",
    "COMPARISON_SYMBOL": "=",
    "IC50 (nM)": 7940
  },
  {
    "SMILES_STRING": "C=Cc1ncnc2c1ccn2[C@@H]1C[C@H](CCc2ccc3ccc(NCC4CC4)nc3c2)[C@@H](O)[C@H]1O",
    "TARGET_OF_ASSAY": "PRMT5-MEP50 enzyme (Homo sapiens, UniProt O14744)",
    "COMPARISON_SYMBOL": "=",
    "IC50 (nM)": 3.16
  }
]
